Biological target: CpPI(4)K (Cryptosporidium parvum)
Sequence (Q5CVD3 1-1114): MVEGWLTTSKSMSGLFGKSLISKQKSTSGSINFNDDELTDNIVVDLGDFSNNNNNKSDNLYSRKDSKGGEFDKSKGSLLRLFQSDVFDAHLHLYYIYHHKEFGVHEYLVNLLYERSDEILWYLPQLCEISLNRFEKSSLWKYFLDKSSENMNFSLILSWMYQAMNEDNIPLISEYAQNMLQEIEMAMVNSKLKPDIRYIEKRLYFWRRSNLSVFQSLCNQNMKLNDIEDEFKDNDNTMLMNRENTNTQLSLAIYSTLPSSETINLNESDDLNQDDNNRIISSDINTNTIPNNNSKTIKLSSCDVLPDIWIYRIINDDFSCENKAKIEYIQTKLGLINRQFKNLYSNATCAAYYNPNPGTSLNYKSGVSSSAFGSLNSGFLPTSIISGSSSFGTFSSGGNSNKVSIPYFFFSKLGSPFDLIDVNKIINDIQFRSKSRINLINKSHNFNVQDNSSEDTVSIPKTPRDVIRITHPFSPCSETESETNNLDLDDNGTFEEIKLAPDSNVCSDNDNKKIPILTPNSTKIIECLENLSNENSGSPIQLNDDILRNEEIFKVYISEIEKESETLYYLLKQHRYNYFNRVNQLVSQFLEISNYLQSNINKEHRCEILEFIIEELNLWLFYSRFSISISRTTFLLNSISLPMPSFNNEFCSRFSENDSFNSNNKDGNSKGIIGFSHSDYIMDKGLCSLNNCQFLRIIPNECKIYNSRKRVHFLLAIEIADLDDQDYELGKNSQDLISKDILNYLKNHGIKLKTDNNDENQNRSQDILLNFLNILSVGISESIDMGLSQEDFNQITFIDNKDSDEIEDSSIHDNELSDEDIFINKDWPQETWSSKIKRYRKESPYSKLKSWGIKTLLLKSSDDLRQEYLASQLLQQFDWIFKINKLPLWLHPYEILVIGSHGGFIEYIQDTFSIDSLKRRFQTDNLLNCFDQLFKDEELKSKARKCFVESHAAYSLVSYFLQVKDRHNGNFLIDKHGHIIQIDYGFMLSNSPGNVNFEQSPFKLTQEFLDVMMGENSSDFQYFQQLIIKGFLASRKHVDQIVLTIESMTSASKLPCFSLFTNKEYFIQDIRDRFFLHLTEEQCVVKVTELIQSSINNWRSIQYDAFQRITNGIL
Assay: PI
Assay type: biochemical, C. parvum
Conditions: CpPI(4)K IC50, 3 μM ATP
For each record, write down the corresponding pIC50.
Give bare numbers, as −log10 of the molar value.

compound: COC(=O)c1cc(Cl)ccc1N(C)C(=O)c1ccn2ncc(-c3ccc(C(N)=O)cc3)c2c1 [Compound 5]
pIC50: 8.30
//
compound: CNC(=O)c1ccc(-c2cnn3ccc(C(=O)N(CC(=O)O)c4ccc(Cl)cc4)cc23)cc1 [Compound 2]
pIC50: 8.70
//
compound: COC(=O)c1cc(N(C)C(=O)c2ccn3ncc(-c4ccc(C(=O)O)cc4)c3c2)ccc1Cl [Compound 7]
pIC50: 7.12

Would you be so kind as to report pIC50 for each listed record?
1. CNC(=O)c1ccc(-c2cnn3ccc(C(=O)N(C[C@H]4CCC(=O)O4)c4ccc(OC(F)(F)F)cc4)cc23)cc1 [Compound 4]
2. CNC(=O)c1ccc(-c2cnn3ccc(C(=O)N(C)c4ccc(Cl)c(C(=O)OC)c4)cc23)cc1 [EDI048]

1. 7.74
2. 8.40

What does the record list as pIC50 for CCOC(=O)CN(C(=O)c1ccn2ncc(-c3ccc(C(=O)NC)cc3)c2c1)c1ccc(Cl)cc1 [Compound 1] ?
8.15
